# System: Trypanosoma brucei rhodesiense
# method_notes: Antiparasitic activity against Trypanosoma brucei rhodesiense STIB 900 trypomastigote bloodstream form assessed as growth inhibition at 4.8 ug/ml after 72 hrs by resazurin dye-based fluorometric analysis relative to control
# Type: functional
# condition_parameters: STIB 900, 72 h, read-out: GI
Below, each entry is listed alongside its reported inhibition of growth at 4.8 µg/mL.
Show the value, then the unit it is measured in.

A selection of reference data follows.
CC(C)(C)c1ccc(S(=O)(=O)n2nnc3ccccc32)cc1
0%
CC1Cc2ccccc2N1S(=O)(=O)c1ccc([N+](=O)[O-])cc1 (stereo not given)
68.2%
O=S(=O)(c1ccc(C(F)(F)F)cc1)n1nnc2ccccc21
0.4%

Problem: Data request, read-out inhibition of growth at 4.8 µg/mL, for CC1CCc2ccccc2N1S(=O)(=O)c1cccc(C(F)(F)F)c1 (stereo not given)
Solution: 0%

Problem: Data request, read-out inhibition of growth at 4.8 µg/mL, for CC1Cc2ccccc2N1S(=O)(=O)c1ccc(Br)cc1 (stereo not given)
Solution: 0.9%
